tested on: Haemophilus influenzae; experiment: In vitro antibacterial activity against Haemophilus influenza C.L; format: functional
property_measured: MIC (µg/mL)

Solved entries:
compound_smiles: CCCS(=O)(=O)C1=C(C(=O)O)N2C(=O)[C@@H](NC(=O)/C(=N/OCCF)c3csc(N)n3)CN2C1
test_target: Haemophilus influenzae
property_measured: MIC
data_value: 0.125

compound_smiles: CS(=O)(=O)C1=C(C(=O)O)N2C(=O)[C@@H](NC(=O)/C(=N/OCCF)c3csc(N)n3)CN2C1
test_target: Haemophilus influenzae
property_measured: MIC
data_value: 0.25

compound_smiles: CCS(=O)(=O)C1=C(C(=O)O)N2C(=O)[C@@H](NC(=O)/C(=N/OCCF)c3csc(N)n3)CN2C1
test_target: Haemophilus influenzae
property_measured: MIC
data_value: 0.25

compound_smiles: CS(=O)(=O)C1=C(C(=O)O)N2C(=O)[C@@H](NC(=O)/C(=N/OCCCF)c3csc(N)n3)CN2C1
test_target: Haemophilus influenzae
property_measured: MIC
data_value: 0.125

compound_smiles: N#CC1=C(C(=O)O)N2C(=O)[C@@H](NC(=O)Cc3csc(N)n3)CN2C1
test_target: Haemophilus influenzae
property_measured: MIC
data_value: 32

[1] CCCCS(=O)(=O)C1=C(C(=O)O)N2C(=O)[C@@H](NC(=O)/C(=N/OCCCl)c3csc(N)n3)CN2C1
[2] N#CC1=C(C(=O)O)N2C(=O)[C@@H](NC(=O)Cc3ccccc3)CN2C1
// task: argmin of MIC over [ 1 , 2 ] Indicate which entry you chose by stating its label.
1

Every entry's value here was drawn from ChEMBL document CHEMBL1126865.
